system: HMLE_sh_eGFP viability, CellTiter-Glo luminescence, 72 h; assay: cytotoxicity in HMLE control line with eGFP shRNA, dose response, counter-screen for HMLE_sh_ECad selective toxicity project, cell-based, HMLE_sh_eGFP, luminescence (AID 463074);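 note: counterscreen control line to flag general toxicity for the HMLE_sh_ECad screen; potency for loss of viability as luminescence drops below DMSO wells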
Activity calls are given as the source filed them.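 Rule for the calls: active = AC50 no more than tenfold above the top dose tested, or full inhibition at every dose with a flat fit (cut at about 19 µM in these data); inconclusive = flat curve fit with inhibition between 30% and 70%, or poor fit; inactive = AC50 more than tenfold above the top dose tested.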
Labels: active, inactive

- Cc1nnc(-c2ccc(Oc3ccc(Cl)cc3)c([N+](=O)[O-])c2)o1: active
- Cc1cccc(CN2C(=O)/C(=C\c3ccc(C(=O)NCCCN4CCN(C)CC4)cc3)Oc3ccccc32)c1: active
- CCOC(=O)C1CCN(c2ncnc3c2c(-c2ccccc2)cn3-c2ccccc2)CC1: active
- CC(C)c1ccc(NC(=O)C(c2ccccc2)N(C)C(=O)CCc2c[nH]c3ccccc23)cc1 (stereo not given): active
- O=C(NCCC1=CCCCC1)c1coc(=O)c(Br)c1: active
- CC(C)C[C@H]1CN=C(Nc2ccccc2)N1CC1CCC(C(C)(C)C)CC1 (stereo not given in full): active
- COc1cccc(/C=N/Nc2ncnc(Cl)c2N)c1O: active
- COc1cc(OC)cc(-c2sc3ccc(OC)cc3c2C#CC2(N)CCCCC2)c1: active
- Cc1ccc(-c2nc(NCc3ccco3)c3ccccc3n2)cc1: active
- Cc1ccc(-n2nnnc2SC(C(=O)c2c[nH]c3ccccc23)c2ccccc2)cc1 (stereo not given): active
- O=C(Nc1nc(-c2cccc3ccccc23)cs1)c1ccc2c(c1)S(=O)(=O)c1ccccc1C2=O: active
- CC(C)=CCC/C(C)=C/Cc1c(O)ccc(C(=O)/C=C/c2ccc(O)cc2)c1O: active
- Cc1ccc(C)c(N2CCN(C(=S)Nc3ccc4nc(N5CCN(C)CC5)cc(C)c4c3)CC2)c1: active
- Cc1ccccc1-n1c(SCC(=O)N/N=C/C=C/c2ccccc2[N+](=O)[O-])nc2ccccc2c1=O: inactive
- COc1ccc(Br)cc1C(C[N+](=O)[O-])c1c(N)n(C)c(=O)n(C)c1=O (stereo not given): active
- Cc1cccc(C)c1OCc1cc(C(=O)N2CC3C[C@@H]4CC2C[C@H](C3)C4)no1: active
- O=C1CC(=Nc2ccccc2)NN1c1ccccc1: active
- COc1ccc(OC)c(-c2csc(N(CC3CCCO3)C(=O)C3CCCCC3)n2)c1 (stereo not given): active
- COC(=O)c1ccc(CN(c2ccc(C(=O)O)c(O)c2)S(=O)(=O)c2ccc(Cl)c([N+](=O)[O-])c2)cc1: active
- Cc1cc(C)c(NC(=O)CSCc2c(C)noc2C)c(C)c1: inactive
- c1ccc(CN2CCC(Nc3nc(-c4cccs4)nc4ccccc34)CC2)cc1: active
- CCOC(=O)c1ccc(Nc2cc(C)nc(-c3ccccc3)n2)cc1: active
- CCOC(=O)c1cnc(-n2nc(C)cc2C)nc1NNc1nc(-c2ccccc2)cc(-c2ccccc2)n1: active
- O=S(=O)(NC1CC(NS(=O)(=O)OCC(Cl)(Cl)Cl)C2CCCCC12)OCC(Cl)(Cl)Cl (stereo not given): active
- CNc1oc(-c2ccc(Cl)cc2)nc1P(=O)(c1ccccc1)c1ccccc1: active
- O=C(Nc1ccc2c(c1)OCCO2)c1cccc2nc3ccccc3nc12: active
- CC(C)(C)c1nc(N2CCN(C(=O)c3ccco3)CC2)c2nnn(Cc3ccccc3Cl)c2n1: active
- COc1cc(OC)cc(-c2sc3ccc(OC)cc3c2-c2ccc(O)cc2)c1: active
- C=CCCC(=O)Nc1nc(C)c(-c2csc(Nc3ccc(Cl)cc3)n2)s1: active
- CCCNCC1C(Oc2ccc(Cl)cc2Cl)C(=O)N1c1cccc(C)c1C (stereo not given): active
- Cc1cccc(C)c1N=Nc1c(C)cc(O)cc1C: active
- O=C(/C=C/c1ccc2c(c1)OCO2)NCCSCc1c(Cl)cccc1Cl: active
- COc1ccc(-c2sc3ccc(OC)cc3c2C#CCCO)cc1: active
- CC(C)(C)[C@H](N)C(=O)N[C@H]1CCC2C3CC=C4C[C@@H](O)CC[C@]4(C)C3CC[C@@]21C (stereo not given in full): active
- C[C@H]1CN([C@@H](C)CO)C(=O)Cc2cc(NC(=O)CCC(F)(F)F)ccc2O[C@H]1CN(C)Cc1ccc(-c2ccccc2)cc1: active
- O=C(NNc1ccc(-c2csnn2)cc1)c1cc(Cl)cc(Cl)c1: active
- Cc1ccc(NC(=S)Nc2ccc(C(C)C)cc2)cc1S(=O)(=O)N1CCCCCC1: active
- O=S(=O)(N/N=C1/CC(c2ccccc2)Oc2ccccc21)c1ccc(Br)cc1 (stereo not given): active
- Cc1cc(C)cc(NS(=O)(=O)c2ccc(Oc3ncc(C(F)(F)F)cc3Cl)cc2)c1: active
- C/C(=N\Nc1ccccc1)c1c(O)[nH]c(=O)[nH]c1=O: active

---

test system: HMLE_sh_eGFP viability, CellTiter-Glo luminescence, 72 h; assay: cytotoxicity in HMLE control line with eGFP shRNA, dose response, counter-screen for HMLE_sh_ECad selective toxicity project, cell-based, HMLE_sh_eGFP, luminescence (AID 463074);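 note: counterscreen control line to flag general toxicity for the HMLE_sh_ECad screen; potency for loss of viability as luminescence drops below DMSO wells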
Active and inactive are the calls of the source.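 How the source made its calls: active means AC50 no more than tenfold above the top dose tested, or full inhibition at every dose with a flat fit (cut at about 19 µM in these data); inconclusive means flat curve fit with inhibition between 30% and 70%, or poor fit; inactive means AC50 more than tenfold above the top dose tested.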
Labels: active, inactive

• COc1ccc(CNCC(O)COc2ccc(C(C)(C)c3ccccc3)cc2)cc1 (stereo unspecified) = active
• COc1cccc(/C=C/C(=C2/C(=O)N(c3ccccc3)N=C2C)c2ccc(Br)cc2)c1OC = inactive
• O=C(Nc1ccc(-c2csc(Nc3ccc(Cl)cc3)n2)cc1)c1cc([N+](=O)[O-])cc(C(F)(F)F)c1 = active
• C=C(C)C1Cc2c(C)nn(-c3cccc4ccccc34)c2C1 (stereo unspecified) = active
• Cc1ccc(-c2cc(-c3ccccc3C)[nH]n2)c(O)c1 = active
• S=C(Nc1ccccc1Cl)N1CCCC(c2ccccc2)=N1 = active

---

system: HMLE_sh_eGFP viability, CellTiter-Glo luminescence, 72 h; assay: cytotoxicity in HMLE control line with eGFP shRNA, dose response, counter-screen for HMLE_sh_ECad selective toxicity project, cell-based, HMLE_sh_eGFP, luminescence (AID 463074);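 note: counterscreen control line to flag general toxicity for the HMLE_sh_ECad screen; potency for loss of viability as luminescence drops below DMSO wells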
The source made the active and inactive calls.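 How the source made its calls: active means AC50 no more than tenfold above the top dose tested, or full inhibition at every dose with a flat fit (cut at about 19 µM in these data); inconclusive means flat curve fit with inhibition between 30% and 70%, or poor fit; inactive means AC50 more than tenfold above the top dose tested.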
Possible outcomes: 1 for active, -1 for inactive

* CC1(C)CN(c2ccccc2)N(C(=O)c2ccc(C#N)cc2)C1=O | 1
* O=C(O)c1ccccc1C(=O)NNc1ccc(Cl)cc1 | 1
* Cc1[nH]n(-c2ncc(-c3ccc(Cl)cc3)s2)c(=O)c1C(c1ccc(Cl)cc1)C(C#N)C#N (stereo not given) | 1
* Cc1cccc(-c2nc(C#N)c(NC3CCCCC3)o2)c1 | 1
* CN1CCN(c2ccc(NC(=O)c3ccc(C#N)cc3F)cc2Cl)CC1 | 1
* COc1ccccc1NC(=O)c1c(Nc2ccccc2F)sc(C(=O)Nc2cccc(Cl)c2)c1N | 1
* CCc1ccc(S(=O)(=O)Nc2ccc(O)c3ccccc23)cc1 | 1
* CCn1c(C)c(C)c2cc(C(=O)N3CCN(c4cccc(C)c4C)CC3)ccc21 | 1
* CC(NC(=O)C1CCC(C(=O)NC(C)c2ccccc2)CC1)c1ccccc1 (stereo not given) | -1
* O=C(Nc1cc(C(F)(F)F)cc(C(F)(F)F)c1)Nc1cnn(-c2ccc([N+](=O)[O-])cc2)c1C(F)(F)F | 1
* COC(=O)c1ccccc1NC(=O)c1nc(S(=O)(=O)Cc2ccccc2)ncc1Cl | 1
* CCCCCCSc1nsc(NC(=O)CC(C)C)n1 | 1
* COc1ccc(C=C2C=C(C(C)(C)C)C(=O)C(C(C)(C)C)=C2)cc1OC | 1
* CCN(CC(=O)NC1CCCCC1)S(=O)(=O)c1ccc(Cl)cc1 | -1
* CCCCc1oc2ccccc2c1C(=O)c1cc(I)c(OCCN(CC)CC)c(I)c1 | 1
* CCc1cc(-c2n[nH]c(C)c2-c2ccccc2Cl)c(O)cc1OC | 1
* C[C@]12CC[C@H](O)C[C@H]1CC[C@@H]1[C@@H]2C[C@@H](O)[C@]2(C)[C@@H](C3=CC(=O)OC3)CC[C@]12O | 1
* C[C@@H]1CN([C@@H](C)CO)C(=O)c2cc(NC(=O)Nc3ccc(F)cc3)ccc2O[C@@H]1CN(C)Cc1ccc(Oc2ccccc2)cc1 | 1
* CC(=O)Oc1ccc(-c2ccc(C(=O)Nc3cccc(S(=O)(=O)N4CCOCC4)c3)cc2)cc1 | 1
* CC(C)(C)c1ccc(OCC(=O)N/N=C/c2cc(Br)ccc2OC(=O)c2ccco2)cc1 | 1

---

tested on: HMLE_sh_eGFP viability, CellTiter-Glo luminescence, 72 h; assay: cytotoxicity in HMLE control line with eGFP shRNA, dose response, counter-screen for HMLE_sh_ECad selective toxicity project, cell-based, HMLE_sh_eGFP, luminescence (AID 463074);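 note: counterscreen control line to flag general toxicity for the HMLE_sh_ECad screen; potency for loss of viability as luminescence drops below DMSO wells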
Catalogue of AC50 readings, one per entry.
measurement.kind: AC50

- Cc1ccc(C=Nc2ccccc2C(N)=O)s1: 2.79 µM
- NCCNc1ccc(C(=O)N2c3ccccc3Sc3ccccc32)cc1[N+](=O)[O-]: 8.03 µM
- CCCCCCOc1ccc(/C(C)=N/NC2=NCCN2)cc1[N+](=O)[O-]: 3.69 µM
- COc1ccc(NC(=O)c2cc3ccccc3cc2O)cc1: 8.3 µM
- CC(=O)OCCCNc1cc(Sc2ccc(Cl)cc2)c2nonc2c1[N+](=O)[O-]: 4.28 µM
- O=[N+]([O-])c1cc(-c2cnc3ccccc3n2)ccc1Oc1ccc(Cl)cc1: 3.38 µM
- O=C(CNC(=S)N(Cc1ccccc1)Cc1ccccc1F)NCCc1ccc(Cl)cc1: 6.98 µM
- CCCOC(=O)C(=O)NNc1ccccc1: 1.81 µM
- NC(=O)c1cc([N+](=O)[O-])ccc1NCc1ccc(O)cc1: 3.1 µM
- CCN1C(=O)C(CC(=O)Nc2ccc(OC)cc2)N(CCCN2CCN(c3ccc(F)cc3)CC2)C1=S (stereo unspecified): 7.04 µM
- CC/C(=C\C1CCCCC1)C(NP(=O)(c1ccccc1)c1ccccc1)c1ccccc1 (stereo unspecified): 3.49 µM
- N#C/C(=C\C=C\c1ccccc1[N+](=O)[O-])C(=O)NC1CCCCC1: 6.88 µM
- O/N=C/c1ccnc(SCc2ccc(Cl)cc2)n1: 10.9 µM
- O=C(Nc1ccc2c(c1)OCO2)c1cc(-c2cccc(O)c2)on1: 1.65 µM
- O=C(Nc1ccc(Cl)cc1)c1nc[nH]c1C(=O)NCCN(CCNC(=O)c1[nH]cnc1C(=O)Nc1ccc(Cl)cc1)CCNC(=O)c1[nH]cnc1C(=O)Nc1ccc(Cl)cc1: 4.36 µM
- CCC(C)Sc1cccc(-c2nc3cc(C)ccn3c2NCc2ccccc2)c1 (stereo unspecified): 4.89 µM
- C=C1CCN([C@@H](CC(C)C)C(=O)Nc2nc3ccc(Cl)cc3s2)S(=O)(=O)c2ccccc21: 14.5 µM
- O=C(CS(=O)c1ccc(C(F)(F)F)cc1[N+](=O)[O-])Oc1ccccc1 (stereo unspecified): 5.22 µM
- N#C/C(=C/c1ccc(O)c(O)c1)C(=O)NCc1ccc(Cl)cc1: 13.7 µM
- N=c1c2c(ncn1Cc1ccco1)Oc1c(ccc3ccccc13)C2c1ccccc1 (stereo unspecified): 3.92 µM
- COC(=O)c1cc(=O)n(Cc2cccs2)c(=Nc2ccccc2)s1: 4.57 µM
